Tested on: fibrin- and LPS-induced microglia activation
Assay: cells
Type: cell-based, rat
Settings: quadrant by fibrin and LPS inhibition in HTS of 1907 compounds

| Compound | Tested on | Quadrant (FIG. 5b) |
| --- | --- | --- |
| CC1(C)OC(=O)C(OCC2CC2)=C1c1ccc(S(C)(=O)=O)cc1 [Firocoxib] | fibrin- and LPS-induced microglia activation | Q4 |
| O=C(Nc1ccc([N+](=O)[O-])cc1Cl)c1cc(Cl)ccc1O [Nicolsamide, Niclosamide] | fibrin- and LPS-induced microglia activation | Q4 |
| C[C@H](N)[C@H](O)c1ccc(O)c(O)c1 [Levonordefrin, reference compound] | fibrin- and LPS-induced microglia activation | Q3 |
| CC(C(=O)O)c1cccc(Oc2ccccc2)c1 (stereo not shown) [Fenoprofen] | fibrin- and LPS-induced microglia activation | Q4 |
| C#C[C@]1(OC(C)=O)CC[C@H]2[C@@H]3CCC4=CC(=O)CC[C@@H]4[C@H]3CC[C@@]21C [Norethindrone Acetate] | fibrin- and LPS-induced microglia activation | Q4 |
| COc1cccc2c1C(=O)c1c(O)c3c(c(O)c1C2=O)C[C@@](O)(C(C)=O)C[C@@H]3O[C@H]1C[C@H](N)[C@H](O)[C@H](C)O1 [Daunorubicin] | fibrin- and LPS-induced microglia activation | Q2 |
| NC(=O)c1ccc[n+]([C@@H]2O[C@H](COP(=O)([O-])OP(=O)(O)OC[C@H]3O[C@@H](n4cnc5c(N)ncnc54)[C@H](O)[C@@H]3O)[C@@H](O)[C@H]2O)c1 [Nadide] | fibrin- and LPS-induced microglia activation | Q4 |
